Reported normalized growth is given for each of the following molecules.
Assay: chemical genetic growth profiling, strain panel (AID 1159580);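 note: tested at 20 µM; growth read once vehicle control cultures reached saturation at 30 °C; 1 = growth at the plate median or of vehicle wells; lower values mean less growth of the strain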
Details: S. cerevisiae deletion strains, growth OD, locus YNL153C, strain GIM3, hits give low values
Hit rate of the full screen: of about 5,500 compounds, about 2,000 (36%) were called active. Roughly 18% stayed inconclusive and do not appear here. The list shows a part of the results.

[
  {
    "MOLECULE": "CN1CC(O)C(O)C(O)C1CO (stereo unspecified)",
    "normalized growth": 1.01
  },
  {
    "MOLECULE": "COC(=O)c1ccc(Cl)cc1N(Cc1ccccc1)S(C)(=O)=O",
    "normalized growth": 1
  },
  {
    "MOLECULE": "O=C(N/N=C\\c1ccccc1Cl)c1cccnc1",
    "normalized growth": 1
  },
  {
    "MOLECULE": "CSC(=NCc1cccnc1)NC#N",
    "normalized growth": 1.01
  },
  {
    "MOLECULE": "C=C1C(N)CC2CC1C2(C)C (stereo unspecified)",
    "normalized growth": 1.04
  },
  {
    "MOLECULE": "Cn1nnnc1SCC1=C(C(=O)O)N2C(=O)C(NC(=O)C(O)c3ccccc3)C2SC1 (stereo unspecified)",
    "normalized growth": 1.03
  }
]
